Test system: Mouse hybridoma CAU 96
Test: Batch T-flask culture of hybridoma with oligopeptide supplements (Example 2)
Assay type: cell-based
Where a SMILES comes first, the peptide text is derived from it.
So I've got a bunch of molecules here, and I need their Viable cell number % of control values.

Some molecules with known Viable cell number % of control results, for comparison:
NCC(=O)NCC(=O)NCC(=O)NCC(=O)O [Tetraglycine, Gly-Gly-Gly-Gly] (H-GGGG-OH; N-terminus and C-terminus assumed)    176 % of control
C[C@H](N)C(=O)O [Alanine, reference compound]    94 % of control
C[C@@H](O)[C@H](N)C(=O)O [Threonine, reference compound]    97 % of control
NCC(=O)O [Glycine, reference compound]    102 % of control
NCCC(=O)O [β-alanine, reference compound]    106 % of control

Then this molecule:
Item N[C@@H](CO)C(=O)O [Serine, reference compound] : provide Viable cell number % of control
104 % of control
